measured-on: UniProt:O62403
Sequence (O62403 1-440): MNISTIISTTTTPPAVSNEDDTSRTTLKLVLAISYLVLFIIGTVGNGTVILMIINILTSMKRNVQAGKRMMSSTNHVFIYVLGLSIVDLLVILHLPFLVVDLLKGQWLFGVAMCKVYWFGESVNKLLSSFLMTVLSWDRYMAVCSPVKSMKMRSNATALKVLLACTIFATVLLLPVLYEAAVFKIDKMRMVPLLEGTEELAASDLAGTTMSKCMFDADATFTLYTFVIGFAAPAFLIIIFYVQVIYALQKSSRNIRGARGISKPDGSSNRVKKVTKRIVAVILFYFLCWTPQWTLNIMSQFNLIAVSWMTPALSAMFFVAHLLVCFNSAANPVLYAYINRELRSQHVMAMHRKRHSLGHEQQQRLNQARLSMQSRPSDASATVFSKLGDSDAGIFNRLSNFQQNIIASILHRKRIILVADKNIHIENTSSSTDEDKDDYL
measurement-description: NPR-32 competitive binding assay with [3H]CP55,940 on N2 (WT) membrane preparations
Set-up: species or system C. elegans
experimental-context: read-out: Ki, NPR-32 binding; displacement of 3 nM [3H]CP55,940, N2 (WT) membranes, 5 µM JZL-195 preincubation; apparent Ki by Cheng-Prusoff; 95% CI
Recorded Ki for the following compounds
// note: answer is a bare numeric in nM

CCCCC/C=C\C/C=C\C/C=C\C/C=C\CCCC(=O)NCCO : 1900

Please find the next compound below.
Consider the compound CC/C=C\C/C=C\C/C=C\C/C=C\CCCCCCC(=O)NCCO and give its recorded Ki.
1000
